Measured CCR-3 Transfectant Chemotaxis Assay 6.25 µg/ml (inhibition %), listed per entry.
- experimental_target: CCR-3 (Homo sapiens)
- Sequence (P51677 whole entry): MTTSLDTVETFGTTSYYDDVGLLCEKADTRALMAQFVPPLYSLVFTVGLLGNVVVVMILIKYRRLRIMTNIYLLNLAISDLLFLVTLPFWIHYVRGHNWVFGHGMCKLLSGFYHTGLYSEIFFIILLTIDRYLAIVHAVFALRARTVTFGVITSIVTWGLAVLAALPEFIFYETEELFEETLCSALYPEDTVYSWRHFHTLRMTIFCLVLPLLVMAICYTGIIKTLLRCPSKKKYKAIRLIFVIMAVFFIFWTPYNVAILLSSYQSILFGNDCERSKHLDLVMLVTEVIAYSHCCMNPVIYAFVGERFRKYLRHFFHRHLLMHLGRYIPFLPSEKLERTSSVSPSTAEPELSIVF
- measurement_description: Eotaxin-induced chemotaxis of CCR-3 transfectant cells (CCR3/U937)
- Format: cell-based
- Parameters: expressed in transfected cells; host or cells: U937
- measurement_context: 6.25 µg/ml test compound; eotaxin 1 x 10^-9 M; CCR3/U937 cells (Table 3b)
# number only, unit % dropped from output

CCR-3 Transfectant Chemotaxis Assay 6.25 µg/ml (inhibition %) lookup needed for Cc1cccc(NC(=O)NCCCN(C[C@@H]2CCCN2)C2CCCc3ccccc32)c1 (stereo partly drawn) [Compound 135] , thanks.
12

Which CCR-3 Transfectant Chemotaxis Assay 6.25 µg/ml (inhibition %) reading was recorded for the molecule CCOC(=O)C1CC1CN(CCCNC(=O)Nc1ccccc1-c1ccccc1)CCc1ccc(Cl)c(Cl)c1 (stereo not drawn) [Compound 115] ?
62

Query (molecule): CCOC(=O)C1CC1CN(CCCNC(=O)Nc1cccc(Cl)c1)C1CCCc2ccccc21 (stereo not drawn) [Compound 149] ; field requested: CCR-3 Transfectant Chemotaxis Assay 6.25 µg/ml (inhibition %)
31

====

- experimental_target: UniProtKB P51677
- measurement_description: Eotaxin-induced chemotaxis of CCR-3 transfectant cells (CCR3/U937)
- Assay type: cell-based
- Parameters: expressed in transfected cells; host or cells: U937
- measurement_context: 10 µM test compound; eotaxin 1 x 10^-9 M; CCR3/U937 cells (Table 3a)
Chemotaxis Assay 10 µM (inhibition %) values by entry
Entry rule: numbers only, all in %.

// below: answered molecules
CCN(CCCNC(=O)Nc1ccccc1Br)C1CCCc2ccccc21 (centres unmarked)    100
CC(=O)c1ccc(NC(=O)NCCCN(CCCC(=O)O)C2CCCc3ccccc32)cc1 (centres unmarked)    100
COC(=O)CCCN(CCCNC(=O)Nc1ccc(Br)cc1)[C@@H]1CCc2ccccc21    100
CCN(CCCNC(=O)Nc1ccccc1)CCc1ccccc1Cl    100
CCOC(=O)C1CC1CN(CCCNC(=O)Nc1ccc(Br)cc1)C1CCCc2ccccc21 (centres unmarked)    75

Now look at this entry.
# query: Chemotaxis Assay 10 µM (inhibition %) of entry CC(=O)OCCN(CCCNC(=O)Nc1ccccc1)CCc1ccc(Cl)cc1
81

====

- experimental_target: CCR-3 (Homo sapiens)
- measurement_description: Eotaxin-induced chemotaxis of CCR-3 transfectant cells (CCR3/U937)
- Type: cell-based
- Design: expressed in transfected cells; host or cells: U937
- measurement_context: 10 µM test compound; eotaxin 1 x 10^-9 M; CCR3/U937 cells (Table 3a)
attribute_measured: Chemotaxis Assay 10 µM (inhibition %)
Param answer (str): number followed by unit.

Look over these answered cases.
O=C(O)CCCN(CCCNC(=O)Nc1ccc(Cl)c(C(F)(F)F)c1)C1CCCc2ccccc21 (stereo not shown)    100%
COC(=O)CCCN(CCCNC(=O)Nc1ccc(Br)cc1)CCc1ccccc1    96%
COC(=O)CCCN(CCCNC(=O)Nc1ccc(OC)cc1)C1CCCc2ccccc21 (stereo not shown)    100%

Would you kindly look at the next entry?
# get_value(readout='Chemotaxis Assay 10 µM (inhibition %)', item= COC(=O)CCCCN(CCCNC(=O)Nc1ccc(Br)cc1)C1CCCc2ccccc21 (stereo not shown) )
92%

====

Some compounds, each annotated with its measured Chemotaxis Assay 10 µM (inhibition %).
- experimental_target: CCR-3 (Homo sapiens)
- measurement_description: Eotaxin-induced chemotaxis of CCR-3 transfectant cells (CCR3/U937)
- Format: cell-based
- Design: expressed in transfected cells; host or cells: U937
- measurement_context: 10 µM test compound; eotaxin 1 x 10^-9 M; CCR3/U937 cells (Table 3a)
- Description: The inhibitory activity of the compounds against eotaxin-induced chemotaxis was determined by measuring the inhibition of migration of CCR-3 transfectant cells (CCR3/U937), using a minor modification of the method described by Ohashi, H. et al., Int Arch Allergy Immunol. […] The chemotaxis assay was performed in a 24-well culture plate. […] After incubation, migrated cells in lower wells were diluted and counted by particle size distribution analyzer (CDP-500, Sysmex Co., Ltd.).
All answers are understood in %, so give the number only.

O=C(O)CCCN(CCCNC(=O)Nc1ccc2ccccc2c1)C1CCCc2ccccc21 (centres unmarked)    95
COC(=O)CCCN(CCCNC(=O)Nc1ccc(Cl)cc1)C1CCCc2ccccc21 (centres unmarked)    100

Quick one: Chemotaxis Assay 10 µM (inhibition %) for CCN(CCCNC(=O)Nc1ccccc1)C1CCCc2ccccc21 (centres unmarked) ?
100

Record request: Chemotaxis Assay 10 µM (inhibition %) value, item O=C(O)CCCN(CCCNC(=O)Nc1ccc(Br)cc1)CCc1ccc(Cl)cc1
78

What measured Chemotaxis Assay 10 µM (inhibition %) goes with COC(=O)CCCN(CCCNC(=O)Nc1ccc(Br)cc1)C1Cc2ccccc2C1 ?
100
